Assay: Pharmacokinetic study of oral dasatinib with and without TQ pretreatment, plasma UHPLC-MS/MS, non-compartmental analysis
Assay type: in vivo, Wistar rats
Details: male, Wistar, rat, plasma, po; DAS 25 mg/kg p.o. alone, rats, mean ±SEM
PROPERTY_LABEL: AUC(0-t) (ng·h/mL)
Give bare numbers, in ng·h/mL.

Suppose we examine the compound Cc1nc(Nc2ncc(C(=O)Nc3c(C)cccc3Cl)s2)cc(N2CCN(CCO)CC2)n1 ; what AUC(0-t) value has been reported?
1610

---

Test: Pharmacokinetic study of oral dasatinib with and without TQ pretreatment, plasma UHPLC-MS/MS, non-compartmental analysis
Assay type: in vivo, Wistar rats
Details: male, Wistar, rat, plasma, po; DAS 25 mg/kg p.o. alone, rats, mean ±SEM
PROPERTY_LABEL: k el (s⁻¹)
Give bare numbers, in s⁻¹.

Suppose we examine the compound Cc1nc(Nc2ncc(C(=O)Nc3c(C)cccc3Cl)s2)cc(N2CCN(CCO)CC2)n1 ; what k el value has been reported?
2.5e-05

---

Experiment: Pharmacokinetic study of oral dasatinib with and without TQ pretreatment, plasma UHPLC-MS/MS, non-compartmental analysis
Format: in vivo, Wistar rats
Conditions: male, Wistar, rat, plasma, po; DAS 25 mg/kg p.o. alone, rats, mean ±SEM
PROPERTY_LABEL: Cmax (ng/mL)
Give bare numbers, in ng/mL.

Suppose we examine the molecule Cc1nc(Nc2ncc(C(=O)Nc3c(C)cccc3Cl)s2)cc(N2CCN(CCO)CC2)n1 ; what Cmax value has been reported?
246

---

Assay: Pharmacokinetic study of oral dasatinib with and without TQ pretreatment, plasma UHPLC-MS/MS, non-compartmental analysis
Format: in vivo, Wistar rats
Conditions: male, Wistar, rat, plasma, po; DAS 25 mg/kg p.o. alone, rats, mean ±SEM
PROPERTY_LABEL: half-life (min)
Give bare numbers, in min.

Suppose we examine the compound Cc1nc(Nc2ncc(C(=O)Nc3c(C)cccc3Cl)s2)cc(N2CCN(CCO)CC2)n1 [DAS, Dasatinib] ; what half-life value has been reported?
466

---

Assay: Pharmacokinetic study of oral dasatinib with and without TQ pretreatment, plasma UHPLC-MS/MS, non-compartmental analysis
Type: in vivo, Wistar rats
Details: male, Wistar, rat, plasma, po; DAS 25 mg/kg p.o. alone, rats, mean ±SEM
PROPERTY_LABEL: AUC(0-inf) (ng·h/mL)
Give bare numbers, in ng·h/mL.

Suppose we examine the compound Cc1nc(Nc2ncc(C(=O)Nc3c(C)cccc3Cl)s2)cc(N2CCN(CCO)CC2)n1 [DAS, Dasatinib] ; what AUC(0-inf) value has been reported?
2500

---

Test: Pharmacokinetic study of oral dasatinib with and without TQ pretreatment, plasma UHPLC-MS/MS, non-compartmental analysis
Type: in vivo, Wistar rats
Conditions: male, Wistar, rat, plasma, po; DAS 25 mg/kg p.o. alone, rats, mean ±SEM
PROPERTY_LABEL: MRT (h)
One number for each entry, in h.

Suppose we examine the molecule Cc1nc(Nc2ncc(C(=O)Nc3c(C)cccc3Cl)s2)cc(N2CCN(CCO)CC2)n1 ; what MRT value has been reported?
11.5
